All values here come from patent US8802597B2.

Form field: Plant response rating, Buckwheat, Wild (one value per entry).
# Tested on: wild buckwheat (Polygonum convolvulus)
# experimental details: Test D pre/postemergence
# Type: in vivo
# assay setup: Preemergence, 125 g ai/ha, scale 0 to 100 (100 = complete control)
quantity measured: Plant response rating, Buckwheat, Wild

[
  {
    "molecule": "COC(=O)c1nc(C2CC2C)nc(N)c1Br (centres unmarked)",
    "quantity measured": "Plant response rating, Buckwheat, Wild",
    "experimental value": 45
  },
  {
    "molecule": "CCOC(=O)Cc1nc(C2CC2)nc(N=CN(C)C)c1Br",
    "quantity measured": "Plant response rating, Buckwheat, Wild",
    "experimental value": 65
  },
  {
    "molecule": "COC(=O)c1nc(-c2ccc(Cl)cc2)nc(N)c1Cl",
    "quantity measured": "Plant response rating, Buckwheat, Wild",
    "experimental value": 80
  },
  {
    "molecule": "CCOC(=O)c1nc(C2CC2)nc(N)c1Cl",
    "quantity measured": "Plant response rating, Buckwheat, Wild",
    "experimental value": 100
  },
  {
    "molecule": "COC(=O)c1nc(C2CC2)nc(NO)c1Br",
    "quantity measured": "Plant response rating, Buckwheat, Wild",
    "experimental value": 60
  }
]

###

# Test system: wheat (Triticum aestivum)
# experimental details: Test B pre/postemergence
# Assay type: in vivo
# assay setup: Triticum aestivum, post-emergence, Postemergence, 125 g ai/ha; scale 0 to 100 (0 no effect, 100 complete control); read-out: Wheat plant response rating
Labelling: plant injury at 125 g/ha reported below 40% becomes label 1; at or above becomes label 0.

[
  {
    "structure notation": "CCOC(=O)c1nc(C2CC2)nc(N)c1F",
    "category": "label 0"
  },
  {
    "structure notation": "CCOC(=O)c1nc(-c2ccc(Br)cc2)nc(N)c1Cl",
    "category": "label 0"
  },
  {
    "structure notation": "COC(=O)c1nc(C2CC2)nc(N)c1F",
    "category": "label 1"
  },
  {
    "structure notation": "Nc1nc(C2CC2)nc(C=O)c1Br",
    "category": "label 1"
  },
  {
    "structure notation": "CCOC(=O)c1nc(C2CC2)nc(NN)c1Br",
    "category": "label 0"
  }
]

###

Form field: pest or weed control at 62 g/ha (one value per entry).
# Tested on: chickweed (Stellaria media)
# experimental details: Test C postemergence
# Assay type: in vivo
# assay setup: Stellaria media, post-emergence, 62 g ai/ha, scale 0 to 100 (0 no effect, 100 complete control), read-out: Chickweed plant response rating
quantity measured: pest or weed control at 62 g/ha (%)

[
  {
    "compound": "COC(=O)c1nc(C2CC2)nc(N)c1I [Compound 7]",
    "tested target": "chickweed (Stellaria media)",
    "experimental value": 0
  },
  {
    "compound": "Nc1nc(C2CC2)nc(C(=O)OCc2ccccc2)c1Br [Compound 22]",
    "tested target": "chickweed (Stellaria media)",
    "experimental value": 30
  },
  {
    "compound": "COC(=O)c1nc(C(C)C)nc(N)c1Br [Compound 3]",
    "tested target": "chickweed (Stellaria media)",
    "experimental value": 0
  },
  {
    "compound": "CCOC(=O)c1nc(C2CC2)nc(NN)c1Br [Compound 42]",
    "tested target": "chickweed (Stellaria media)",
    "experimental value": 0
  },
  {
    "compound": "CCOC(=O)c1nc(C2CC2)nc(N)c1Br [Compound 1]",
    "tested target": "chickweed (Stellaria media)",
    "experimental value": 80
  },
  {
    "compound": "COC(=O)c1nc(C2CC2)nc(N)c1F [Compound 25]",
    "tested target": "chickweed (Stellaria media)",
    "experimental value": 40
  }
]

###

Form field: Barnyardgrass plant response rating (one value per entry).
# System: barnyardgrass (Echinochloa crus-galli)
# experimental details: Test E flooded paddy water application
# Assay type: in vivo
# assay setup: 250 g ai/ha; Flood; 21 days; scale 0 to 100 (0 no effect, 100 complete control)

[
  {
    "structure notation": "COC(=O)c1nc(-c2ccc(C)cc2)nc(N)c1Cl",
    "Barnyardgrass plant response rating": 85
  },
  {
    "structure notation": "CCOC(=O)c1nc(-c2ccc(Cl)cc2Cl)nc(N)c1Br",
    "Barnyardgrass plant response rating": 40
  },
  {
    "structure notation": "CCOC(=O)c1nc(-c2ccc(C)cc2)nc(N)c1Br",
    "Barnyardgrass plant response rating": 0
  },
  {
    "structure notation": "CNc1nc(-c2ccc(Cl)cc2)nc(C(=O)OC)c1Cl",
    "Barnyardgrass plant response rating": 0
  },
  {
    "structure notation": "CCOC(=O)c1nc(-c2ccc(Cl)cc2Cl)nc(N)c1Cl",
    "Barnyardgrass plant response rating": 0
  }
]

###

# Test system: lambsquarters (Chenopodium album)
# experimental details: Test C pre/postemergence
# Format: in vivo
# assay setup: Chenopodium album, post-emergence, Postemergence, 31 g ai/ha; read-out: Plant response rating (scale of 0 to 100), Lambsquarters

[
  {
    "structure notation": "CCOC(=O)c1nc(C2CC2)nc(NN)c1Br",
    "tested target": "lambsquarters (Chenopodium album)",
    "units label": "%",
    "pest or weed control at 31 g/ha": 10
  },
  {
    "structure notation": "Nc1nc(-c2ccc(Br)cc2)nc(C(=O)O)c1Cl",
    "tested target": "lambsquarters (Chenopodium album)",
    "units label": "%",
    "pest or weed control at 31 g/ha": 100
  },
  {
    "structure notation": "Nc1nc(-c2ccc(Cl)cc2)nc(C(=O)O)c1Cl",
    "tested target": "lambsquarters (Chenopodium album)",
    "units label": "%",
    "pest or weed control at 31 g/ha": 90
  },
  {
    "structure notation": "COC(=O)c1nc(C2CC2)nc(N)c1Br",
    "tested target": "lambsquarters (Chenopodium album)",
    "units label": "%",
    "pest or weed control at 31 g/ha": 100
  }
]

###

Form field: Plant response rating, Chickweed (one value per entry).
# Test system: chickweed (Stellaria media)
# experimental details: Test C postemergence
# Type: in vivo
# assay setup: 250 g ai/ha, scale 0 to 100
# From the text: […]

[
  {
    "molecule": "COC(=O)c1nc(C2CC2C)nc(N)c1Br (stereo not shown) [Compound 28]",
    "tested target": "chickweed (Stellaria media)",
    "Plant response rating, Chickweed": 15
  },
  {
    "molecule": "CCOC(=O)c1nc(-c2ccc(Cl)cc2)nc(N)c1Br [Compound 37]",
    "tested target": "chickweed (Stellaria media)",
    "Plant response rating, Chickweed": 0
  },
  {
    "molecule": "CCCOC(=O)c1nc(C2CC2)nc(N)c1Br [Compound 15]",
    "tested target": "chickweed (Stellaria media)",
    "Plant response rating, Chickweed": 65
  },
  {
    "molecule": "Nc1nc(C2CC2)nc(C=NO)c1Br [Compound 27]",
    "tested target": "chickweed (Stellaria media)",
    "Plant response rating, Chickweed": 0
  }
]

###

Form field: Sedge, Umbrella plant response rating (one value per entry).
# System: smallflower umbrella sedge (Cyperus difformis)
# experimental details: Test E flooded paddy water application
# Type: in vivo
# assay setup: 250 g ai/ha; Flood; 21 days; scale 0 to 100 (0 no effect, 100 complete control)
quantity measured: Sedge, Umbrella plant response rating

[
  {
    "compound": "CCOC(=O)c1nc(-c2ccc(Br)cc2)nc(N)c1Cl [Compound 94]",
    "quantity measured": "Sedge, Umbrella plant response rating",
    "experimental value": 100
  },
  {
    "compound": "CCOC(=O)c1nc(-c2ccc(F)cc2)nc(N)c1Br [Compound 63]",
    "quantity measured": "Sedge, Umbrella plant response rating",
    "experimental value": 80
  },
  {
    "compound": "CCOC(=O)c1nc(-c2ccc(Cl)cc2)nc(N)c1Br [Compound 37]",
    "quantity measured": "Sedge, Umbrella plant response rating",
    "experimental value": 95
  },
  {
    "compound": "CCOC(=O)c1nc(-c2ccc(Cl)cc2)nc(N)c1Cl [Compound 64]",
    "quantity measured": "Sedge, Umbrella plant response rating",
    "experimental value": 100
  },
  {
    "compound": "CCOC(=O)c1nc(-c2ccc(Cl)c(Cl)c2)nc(N)c1Cl [Compound 73]",
    "quantity measured": "Sedge, Umbrella plant response rating",
    "experimental value": 85
  },
  {
    "compound": "CNc1nc(-c2ccc(Cl)cc2)nc(C(=O)OC)c1Cl [Compound 111]",
    "quantity measured": "Sedge, Umbrella plant response rating",
    "experimental value": 75
  },
  {
    "compound": "Nc1nc(-c2ccc(Cl)cc2)nc(C(=O)O)c1Br [Compound 88]",
    "quantity measured": "Sedge, Umbrella plant response rating",
    "experimental value": 95
  },
  {
    "compound": "CCOC(=O)c1nc(-c2ccc(C)c(C)c2)nc(N)c1Br [Compound 70]",
    "quantity measured": "Sedge, Umbrella plant response rating",
    "experimental value": 60
  },
  {
    "compound": "CCOC(=O)c1nc(-c2ccc3c(c2)OCO3)nc(N)c1Cl [Compound 74]",
    "quantity measured": "Sedge, Umbrella plant response rating",
    "experimental value": 100
  },
  {
    "compound": "COC(=O)c1nc(-c2ccc(C(F)(F)F)cc2)nc(N)c1Cl [Compound 44]",
    "quantity measured": "Sedge, Umbrella plant response rating",
    "experimental value": 100
  }
]
